Collected Ki for 5-hydroxytryptamine receptor 6 (Homo sapiens) across several studies; compounds listed below.
reported-endpoint: Ki (nM)

Some entries whose results are on file:
COc1ccc(NS(=O)(=O)c2sc3ccc(Cl)cc3c2C)cc1N1CCN(S(=O)(=O)c2cccc3c(N(C)C)cccc23)CC1	165
O=S(=O)(NC1CCN(CCOc2ccccc2)CC1)c1cccs1	862
C[C@@H]1NC(N)=Nc2cccc(Cl)c21	1030
Cc1cccc(S(=O)(=O)c2n[nH]c3ccc(N4CCN(C)CC4)cc23)c1	0.9
CN1CCN(Cc2ccc(OCCCN3CCC(c4noc5cc(F)ccc45)CC3)cc2)CC1	93.3

P. COc1cccc(S(=O)(=O)c2n[nH]c3ccc(N4CCN(C)CC4)cc23)c1
Q. CCN/C(=N\S(=O)(=O)c1ccc(OC)cc1)N1CC2(C=N1)CCCC2
Between the entries labelled P and Q , which has a larger Ki value on record? Choose, then provide that item's label. Q
(Q: 210 nM, P: 1.1 nM)

I. COc1ccccc1N1CCN(Cc2ccc(CN3C(=O)c4ccccc4S3(=O)=O)cc2)CC1
II. O=C(Nc1ccc2cnn(S(=O)(=O)c3cccc4ccccc34)c2c1)[C@@H]1CCCNC1
// returns I or II , whichever has the lower Ki Label of pick, please. II

====

Hi, quick share: literature Ki data for 5-hydroxytryptamine receptor 6 (Homo sapiens, UniProt P50406), several sources combined.
reported-endpoint: Ki (nM)

Answered examples (5):
CCN/C(=N\S(=O)(=O)c1cc(O)cc(Cl)c1)N1CC2(C=N1)CCCC2	6.1
O=S(=O)(c1cccc2ncccc12)N1CCC(CCN2CCN(c3cccc(Cl)c3Cl)CC2)CC1	401
O=S(=O)(c1cncc2ccccc12)N1CC[C@@H]1CCN1CCN(c2nsc3ccccc23)CC1	348
O=S(=O)(c1cn(C2CCCNC2)c2ccccc12)c1cccc2cccnc12 (stereo not given)	5.6
Cl.O=C(Nc1ccc2[nH]nc(S(=O)(=O)c3cccc4ccccc34)c2c1)C1CCNCC1	1.1

1. CCN/C(=N\S(=O)(=O)c1cccc(Cl)c1)N1CC(C)(C)C=N1
2. Nc1ccc(SC2CCc3ccccc32)cc1 (stereo not given)
3. Nc1ccc(S(=O)(=O)c2cc(Br)nc(N3CCCC3)c2)cc1
Please order the records by their reported Ki, lowest number first. Submit the labels in the order that the ranking request calls for. 3, 1, 2
(3: 1 nM, 1: 24.1 nM, 2: 4200 nM)

====

pKi: −log10 of the molar value.
The molecules below each have a reported pKi tested on 5-hydroxytryptamine receptor 6 (Homo sapiens, UniProt P50406); the values come from various publications.
Sequence (P50406 whole entry): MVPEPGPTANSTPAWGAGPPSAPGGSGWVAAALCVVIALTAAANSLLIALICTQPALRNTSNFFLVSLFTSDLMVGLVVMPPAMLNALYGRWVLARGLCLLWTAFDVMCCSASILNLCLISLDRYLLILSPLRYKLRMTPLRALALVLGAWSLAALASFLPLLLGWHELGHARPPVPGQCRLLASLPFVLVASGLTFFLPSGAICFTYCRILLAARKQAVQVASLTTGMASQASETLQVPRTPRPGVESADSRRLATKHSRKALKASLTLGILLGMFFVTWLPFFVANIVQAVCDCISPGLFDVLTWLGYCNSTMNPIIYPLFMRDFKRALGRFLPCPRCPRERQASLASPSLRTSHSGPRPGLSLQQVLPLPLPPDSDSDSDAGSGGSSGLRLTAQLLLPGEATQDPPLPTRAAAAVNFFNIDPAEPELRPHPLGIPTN
reported-endpoint: pKi

See these solved cases before continuing.
COc1ccc(Cn2cc(CCN(C)C)c3ccccc32)cc1	6.88
COCc1cc(C)nc2c(S(=O)(=O)c3ccccc3)c(SC)nn12	6.81
O=C1c2cccc3cccc(c23)N1CCCCCCN1CCN(c2ccccc2C(F)(F)F)CC1	5.95
Nc1ccc(S(=O)(=O)Nc2cccc(N)c2)cc1	6.20

P. O=S(=O)(c1ccc(F)cc1F)n1ccc2ccc(N3CCN4CCCCC4C3)cc21 (configuration not stated)
Q. CSc1nn2c(C)cc(C)nc2c1S(=O)(=O)c1ccc(F)cc1
R. O=S(=O)(c1cccc2ncccc12)N1CCC[C@H]1CCN1CCN(c2cccc3c2OCCO3)CC1
Descending sort on pKi required. Give me the labels in the order the question wants. P, Q, R

====

Please find below pKi data on 5-hydroxytryptamine receptor 6 (Homo sapiens) compiled from the literature.
pKi: −log10 of the molar value.
reported-endpoint: pKi

Here is how some compounds turned out for pKi.
CCc1ccc(N2CCN(Cc3c[nH]c4ncccc34)CC2)cc1	5.35
O=C(Nc1ccc2cnn(S(=O)(=O)c3cccc4ccccc34)c2c1)C1CCCNC1 (racemic)	8.89
CCN/C(=N\S(=O)(=O)c1cccc(OC)c1)N1CC(CC)C=N1 (stereo unspecified)	7.58
CNc1cc(NS(=O)(=O)c2ccc(N)cc2)nc(NC)n1	7.26
Nc1ccc(S(=O)(=O)C2CCc3ccccc32)cc1 (stereo unspecified)	6.13
O=S(=O)(NC1CCN(CCOc2cccc(Cl)c2Cl)C1)c1ccc(Cl)s1 (stereo unspecified)	7.04

P. CN1CCC(n2cc(S(=O)(=O)c3cccc4ccccc34)c3ccccc32)C1 (stereo unspecified)
Q. COc1ccc(CNCCC(c2ccco2)c2ccccc2OC)cc1 (stereo unspecified)
Between the entries labeled P and Q , whose measured pKi is lower? // return label of chosen record Q
(Q: 5.62, P: 8.22)

A. O=S(=O)(c1ccc(F)cc1F)n1cc(Cl)c2cc(CN3CCNCC3)ccc21
B. O=S1(=O)c2cccc3cccc(c23)N1CCCCCCN1CCN(c2ccccc2Cl)CC1
Of A versus B , which is the one with smaller reported pKi? Respond using the label that marks the chosen record. B

1. COc1ccc2c(c1)c1c(n2S(=O)(=O)c2ccc(Cl)cc2)CCCC1CN(C)C (stereo unspecified)
2. O=S(=O)(c1cccc2ncccc12)N1CCC[C@@H]1CCN1CCN(c2cccc3[nH]ccc23)CC1
3. CNc1ccc2c3c(n(S(=O)(=O)c4ccc(N)cc4)c2c1)CCCC3
4. CCOC(=O)c1cccc(NC2=NC(N(C)C)=NC3(CCCCC3)N2)c1
5. O=c1c(-c2ccccc2)c2n(c(=O)n1CCCCN1CCCC(c3c[nH]c4ccccc34)C1)CCCC2 (stereo unspecified)
Thanks in advance: please rank these 5 entries by pKi, highest to lowest. Use the labels to give the ranking in the order requested. 1, 3, 2, 5, 4
(1: 8.30, 3: 6.69, 2: 6.19, 5: 5.94, 4: 5.32)

I. CC1(c2ccc(Br)cc2)C(=O)Nc2cc(Cl)cc(Cl)c2C1=O (stereo unspecified)
II. O=C1Nc2ccccc2C12CCN(CCN1CCC(c3ccc(F)cc3)CC1)C2 (stereo unspecified)
Param metric = pKi; output whichever of I , II has the minimum value. // respond with label for picked entry II
(II: 5.28, I: 6.52)

A. C[C@H](NCc1ccc(OCCCCN2CCN(c3cccc4c3ccn4Cc3cccc(Cl)c3)CC2)cc1)C(N)=O
B. O=S(=O)(c1cccc2ncccc12)N1CCC(CCN2CCN(c3cccc(Cl)c3)CC2)CC1
Parameter metric = pKi. Return the lower-valued option from A and B . Mark your answer with the label of the selected entry. B

====

Literature Ki values, system: 5-hydroxytryptamine receptor 6 (Homo sapiens).
reported-endpoint: Ki (nM)

CN1CCCC(n2cc(S(=O)(=O)c3ccc(Cl)s3)c3cccnc32)C1 (stereo not given)	1.9
O=S(=O)(c1cccc2ncccc12)N1CCCCC[C@H]1CCN1CCN(c2nsc3ccccc23)CC1	457
CC1=C(CCN(C)C)c2cc(NS(=O)(=O)c3c(Cl)nc4sccn34)ccc2C1	4.5
CN1CCC(N(C)C(=O)C2CN(S(=O)(=O)c3cccc(-c4ccccc4)c3)c3ccccc32)CC1 (racemic)	31.6

A. CC(C)CS(=O)(=O)n1ccc2c(-c3ccc(C(F)(F)F)cc3)cc(N3CCN(C)CC3)nc21
B. COc1ccccc1-c1cc(C2CCNC2)ccc1Cl (stereo not given)
C. O=S(=O)(NCCCCN1CCc2ccccc2C1)c1ccc2ncccc2c1
D. O=S(=O)(c1cc(Cl)cc(Cl)c1)c1cn(C2CCCNC2)c2ncccc12 (stereo not given)
E. O=S(=O)(c1ccc(C(F)(F)F)cc1)c1n[nH]c2ccc(NC3CCNCC3)cc12
hey, can you rank those compounds up there by Ki? biggest number first please List each label, following the requested order. C, B, D, A, E
(C: 8250 nM, B: 400 nM, D: 6.1 nM, A: 4 nM, E: 1.5 nM)

====

Multiple publications report Ki for 5-hydroxytryptamine receptor 6 (Homo sapiens, UniProt P50406); what follows is a combined list.
reported-endpoint: Ki (nM)

Example results:
CC(=O)Nc1ccc(OCCCCN2CCC(c3noc4cc(F)ccc34)CC2)cc1	765
Cc1cn(S(=O)(=O)c2ccc(N)cc2)c2ccccc12	12.6
CC(C)c1ccccc1OCCN1CCC(NS(=O)(=O)c2cccc(Cl)c2)C1 (stereo not given)	245
COc1ccc(S(=O)(=O)N2CCCc3cc(Br)ccc32)cc1N1CCNCC1	3.16

A. CC(C)CS(=O)(=O)n1ccc2c(-c3ccc4[nH]ccc4c3)cc(N3CCN(C)CC3)nc21
B. O=C(CCN1CCCCC1)Nc1ccc2c(S(=O)(=O)c3cccc4ccccc34)n[nH]c2c1
C. Cl.Cl.Cl.O=c1c2ccc(Cl)cc2oc2c(CN3CCN(CCO)CC3)cccc12
D. CC(C)Cn1nc(S(=O)(=O)c2cccc3ccccc23)c2cc(N3CCN(C)CC3)ccc21
E. CSc1nn2cccnc2c1S(=O)(=O)c1ccccc1
With regard to Ki, arrange the entries in ascending order, please. Answer by listing the labels in the requested order. D, A, B, E, C

====

// compounds with reported pKi on 5-hydroxytryptamine receptor 6 (Homo sapiens, UniProt P50406), multi-publication
pKi: −log10 of the molar value.
reported-endpoint: pKi

Some compounds with known pKi results, for comparison:
CC(Oc1cc(F)ccc1F)c1nc(N)nc(N2CCN(C)CC2)n1 (stereo unspecified)	7.25
CN1CCC(N(C)C(=O)C2CN(S(=O)(=O)c3cccs3)c3ccccc32)CC1 (racemic)	6.50
O=C1c2ccccc2S(=O)(=O)N1CCCCN1CCN(c2cccc(Cl)c2Cl)CC1	5.57
C[C@H](NCc1ccc(OCCCCN2CCN(c3cccc4c3ccn4S(=O)(=O)c3ccccc3)CC2)cc1)C(N)=O	7.17
CCN/C(=N\S(=O)(=O)c1ccc2[nH]ccc2c1)N1CC2(C=N1)CCCC2	8.32

P. O=S(=O)(c1cccc(Br)c1)c1cn(C2CCNC2)c2ncccc12 (stereo unspecified)
Q. CNc1nn2c(C)cc(C)nc2c1S(=O)(=O)c1cccc(Cl)c1
R. O=S(=O)(c1ccccc1)c1cn(C2CCNC2)c2ccccc12 (stereo unspecified)
S. O=S(=O)(c1cccc2ccccc12)c1n[nH]c2cccc(NC3CCNCC3)c12
T. CC(Oc1cc(C(F)(F)F)ccc1F)c1nc(N)nc(N2CCN(C)CC2)n1 (stereo unspecified)
Arrange by pKi, high to low. To answer, write out the labels according to the requested order. Q, P, S, R, T
(Q: 9.73, P: 8.89, S: 8.55, R: 8.30, T: 7.28)

P. COc1cc2c(c(OC)c1)C(=O)C(C)(c1ccccc1)C(=O)N2 (stereo unspecified)
Q. O=S(=O)(c1cccc2ccccc12)c1n[nH]c2cccc(N3CCNCC3)c12
Parameter check: reported pKi is higher for which label, P or Q ? Selection: enter the item's label. Q
(Q: 7.32, P: 6.14)
